Reported IC50 values follow for various compounds
# Run Description: Cytotoxicity against human U937 cells assessed as decrease in cell number after 24 hrs by MTT assay
# Type: functional, cell-based
# Test Conditions: U-937, 24 h
Measured Metric: IC50

C=C(C(O)/C=C/C(C)=O)[C@@H]1C[C@@H](O)[C@@]2(C)[C@@H]1[C@@H]1[C@H](C)CC[C@@H]12 (some centres undefined) = 13 µg/mL
C=C(C(=O)/C=C/C(C)(O)COC(C)=O)[C@@H]1C[C@@H](O)[C@@]2(C)[C@@H]1[C@@H]1[C@H](C)CC[C@@H]12 (some centres undefined) = 9.58 µg/mL
C=C(C[C@@H](O)C=C(C)C)[C@@H]1C[C@@H](O)[C@@]2(C)[C@@H]1[C@@H]1[C@H](C)CC[C@@H]12 = 51.3 µg/mL
C=C(C(=O)/C=C/C(C)(O)COC(C)=O)[C@@H]1C[C@@H](OC(C)=O)[C@@]2(C)[C@@H]1[C@@H]1[C@H](C)CC[C@@H]12 (some centres undefined) = 8.8 µg/mL

----------
# System: Escherichia coli
# Run Description: Antibacterial activity against Escherichia coli assessed as growth inhibition at 0.5 mg/ml after 24 hrs by well diffusion method
# Assay type: functional
# Test Conditions: read-out: DIZ
Measured Metric: zone of inhibition at 500 µg/mL (mm)

C=C(C(O)/C=C/C(C)(O)CO)[C@@H]1C[C@@H](O)[C@@]2(C)[C@@H]1[C@@H]1[C@H](C)CC[C@@H]12 (mixture of isomers) = 11.7
C=C(C(O)/C=C/C(C)(O)COC(C)=O)[C@@H]1C[C@@H](OC(C)=O)[C@@]2(C)[C@@H]1[C@@H]1[C@H](C)CC[C@@H]12 (mixture of isomers) = 11.3
C=C(CC(C=C(C)C)OC(C)=O)[C@@H]1C[C@@H](O)[C@@]2(C)[C@@H]1[C@@H]1[C@H](C)CC[C@@H]12 (stereo partly drawn) = 10.7
C=C(C[C@@H](O)C=C(C)C)[C@@H]1C[C@@H](O)[C@@]2(C)[C@@H]1[C@@H]1[C@H](C)CC[C@@H]12 = 12.3
C=C(CC(=O)C=C(C)C)[C@@H]1CC(=O)[C@@]2(C)[C@@H]1[C@@H]1[C@H](C)CC[C@@H]12 = 10
C=C(C(=O)/C=C/C(C)=O)[C@@H]1CC(=O)[C@@]2(C)[C@@H]1[C@@H]1[C@H](C)CC[C@@H]12 = 11
C=C(C(/C=C/C(C)(O)COC(C)=O)OC(C)=O)[C@@H]1C[C@@H](O)[C@@]2(C)[C@@H]1[C@@H]1[C@H](C)CC[C@@H]12 (mixture of isomers) = 14.3
C=C(C/C=C/C(C)(C)O)[C@@H]1C[C@@H](OC(C)=O)[C@@]2(C)[C@@H]1[C@@H]1[C@H](C)CC[C@@H]12 (mixture of isomers) = 13.3

----------
# System: Bacillus subtilis
# Run Description: Antibacterial activity against Bacillus subtilis assessed as compound concentration required to complete growth inhibition at 8 hrs by tube dilution method
# Assay type: functional
Measured Metric: MIC

C=C(C(O)/C=C/C(C)(O)COC(C)=O)[C@@H]1C[C@@H](OC(C)=O)[C@@]2(C)[C@@H]1[C@@H]1[C@H](C)CC[C@@H]12 (mixture of isomers) = 50 µg/mL
C=C(C[C@@H](O)C=C(C)C)[C@@H]1C[C@@H](O)[C@@]2(C)[C@@H]1[C@@H]1[C@H](C)CC[C@@H]12 = 100 µg/mL
C=C(C(=O)/C=C/C(C)(O)COC(C)=O)[C@@H]1C[C@@H](O)[C@@]2(C)[C@@H]1[C@@H]1[C@H](C)CC[C@@H]12 (stereo partly specified) = 100 µg/mL
C=C(C(=O)/C=C/C(C)=O)[C@@H]1CC(=O)[C@@]2(C)[C@@H]1[C@@H]1[C@H](C)CC[C@@H]12 = 50 µg/mL
C=C(C(/C=C/C(C)(O)COC(C)=O)OC(C)=O)[C@@H]1C[C@@H](O)[C@@]2(C)[C@@H]1[C@@H]1[C@H](C)CC[C@@H]12 (mixture of isomers) = 100 µg/mL
C=C(C(/C=C/C(C)(O)COC(C)=O)OC(C)=O)[C@@H]1C[C@@H](OC(C)=O)[C@@]2(C)[C@@H]1[C@@H]1[C@H](C)CC[C@@H]12 (stereo partly specified) = 100 µg/mL
